Test system: SN12C renal
Assay: NCI tumour cell line growth inhibition, 48 h
*1 amine or outer side, *2 acyl side, *3 side chain or, on linkers, in order; H or OH if unused. Where a SMILES comes first, the peptide text is derived from it. [ ]: non-standard residue; d: D form. The star is where a group is joined. X31 = CC(=O)N(C)SCC(N[*:1])C(=O)[*:2]; X47 = CC(=O)N(C)SCC(N*)/C(O)=N\O; Cbz = O=C(OCc1ccccc1)*; Bn = c1ccc(C*)cc1; For = O=C*
Overview of reported TGI across a group of compounds:
recorded_endpoint: TGI

compound=NC(=O)c1nnc2ccc(F)cc2c1N value_observed="> 100 µM"
compound="CC(=O)OC12/C(=N/O)CCCCCC1c1ccccc12 (stereo unspecified)" value_observed="> 100 µM"
compound="CC1CC(C)C(O)C(C2CC(CC(=O)NC3CCCCC3)CC(=O)O2)C1 (stereo unspecified)" value_observed="> 100 µM"
compound="CC(C)(C)OC(=O)NCCCCC(N)C(N)=O (stereo unspecified)" value_observed="> 100 µM"
compound=Cc1ccc([N+](=O)[O-])cc1NC(=O)Nc1cccc(F)c1 value_observed="> 100 µM"
compound=O=C(Nc1ccccc1-c1n[nH]c(=S)[nH]c1=O)C(F)(F)F value_observed="> 100 µM"
compound=O=C(/C=C1\N=C(c2ccccc2)N(c2nc3ccc(Sc4ccccc4)cc3[nH]2)C1=O)/C=C/c1ccccc1 value_observed="> 100 µM"
compound="CC(=O)N(C)SCC(NC(=O)C(Cc1ccccc1)NC(=O)OCc1ccccc1)C(=O)NC(Cc1ccccc1)C(=O)NC(Cc1cn(C=O)c2ccccc12)C(=O)NC(CCCCNC(=O)OCc1ccccc1)C(=O)NC(C(=O)NC(CSN(C)C(C)=O)/C(O)=N\\O)C(C)OCc1ccccc1 (stereo unspecified) (Cbz-F[X31]FW(For)K(Cbz)T(Bn)-X47; configuration not given here)" value_observed="> 100 µM"
compound=O=c1sc2c(s1)SSSSS2 value_observed="> 50 µM"
compound="CCCCCCCC1C(C)c2c([nH]c3ccccc23)C2C(=O)N(c3ccc(OC)cc3)C(=O)C21 (stereo unspecified)" value_observed="> 5.95 µM"
compound="CC1(C)CC23C4COC(=O)C2CCC1C3CC4=O (stereo unspecified)" value_observed="42.5 µM"
compound=C=CC[n+]1c(/C=C/C=C2\N(C)c3ccccc3C2(C)C)sc2ccc(OC)cc21 value_observed="11.8 µM"
compound=COc1cc2c(cc1OC)-c1cc3ccccc3c[n+]1CC2 value_observed="> 100 µM"
compound=O=C(OCc1ccccc1CN1CCOCC1)c1cccc(Br)c1 value_observed="> 100 µM"
compound=ON/N=C/c1cc2c(cc1Br)OCO2 value_observed="> 386 µM"
compound="CC(=O)OC1=c2ccccc2=C(O)C2C1C=NN2C(C)=O (stereo unspecified)" value_observed="> 100 µM"
compound=O=C(O)CCNc1ccccc1C(=O)O value_observed="> 100 µM"
compound=CC[C@]12CCCN3CCc4c(n(c5ccccc45)C(=O)C1)[C@@H]32 value_observed="> 100 µM"
compound="Cc1ccccc1NC(=O)C(=O)C(C#N)c1ccc(Cl)cc1 (stereo unspecified)" value_observed="> 100 µM"
compound=Cc1ccc(NC(=O)c2cc3cc(N=Nc4ccc(Br)cc4)ccc3oc2=O)cc1 value_observed="> 100 µM"
compound=O=C1OC[C@@H]2[C@@H](O)CCCCCN12 value_observed="> 100 µM"

###

Test system: MCF7 breast
Assay: NCI tumour cell line growth inhibition, 48 h
Overview of reported TGI across a group of compounds:
recorded_endpoint: TGI

compound=COc1cc(Cc2cc3c(c(C(=O)O)c2Br)OCO3)cc(OC)c1OC value_observed="> 100 µM"
compound=O=C(/C=C1\N=C(c2ccccc2)N(c2nc3ccc(Sc4ccccc4)cc3[nH]2)C1=O)/C=C/c1ccccc1 value_observed="> 100 µM"
compound=CCOC(=O)NC(Nc1ncccn1)(C(F)(F)F)C(F)(F)F value_observed="> 100 µM"
compound="CCCCCC(C)(C)CCC(=O)OC1OC(COC2OC(COC3OC(CO)C(O)C(O)C3O)C(O)C(O)C2O)C(O)C(O)C1O (configuration not stated)" value_observed="> 100 µM"
compound="CC12CCC3C(CCC4Cc5[nH]c6ccccc6c5CC43C)C1CCC2O (configuration not stated)" value_observed="> 100 µM"
compound="CN(C)C(Cc1cnc[nH]1)C(=O)N1CCCC1C(N)=O (configuration not stated)" value_observed="> 100 µM"
compound=CCC1=NC(N/N=C/c2ccco2)=N/C1=C\c1ccccc1O value_observed="> 100 µM"
compound=NCCSc1nc2ccccc2s1 value_observed="98.1 µM"
compound=NNC(=O)CSc1nc2ccc(I)cc2c(=O)n1Cc1ccccc1 value_observed="59.4 µM"
compound=NC(=O)NNCc1ccccc1 value_observed="> 100 µM"
compound=O=C(CN1CCN(Cc2ccccc2)CC1)c1ccc2[nH]c(=O)oc2c1 value_observed="> 100 µM"
compound=COc1c(C=O)c2c(c(OC)c1OC)-c1ccc(OC)c(=O)cc1[C@@H](NC(C)=O)CC2 value_observed="28.4 µM"
compound=CC1=NCCN=C(C)C1N=Nc1ccc2nc(C)[nH]c2c1 value_observed="30.1 µM"
compound=Cc1cccc(NC(=O)CCc2ccc(N3C(N)=NC(N)=NC3(C)C)cc2)c1 value_observed="> 100 µM"
compound=NCC(=O)NC1(c2cc3ccccc3s2)CCCCC1 value_observed="> 100 µM"
compound=CC(C)(C)c1cc(CC2C(=O)c3ccccc3C2=O)cc(C(C)(C)C)c1O value_observed="> 100 µM"
compound="CC[C@]1(O)CC(OC2CC(N(C)C)C(O)C(C)O2)c2c(cc3c(c2O)C(=O)c2c(O)cccc2C3=O)[C@@H]1C(=O)OC (some centres not stated)" value_observed="6.17 µM"
compound=COc1cc(-c2cn(S(=O)(=O)c3ccc(C)cc3)c3ccccc23)nc(-c2cn(S(=O)(=O)c3ccc(C)cc3)c3ccccc23)n1 value_observed="> 100 µM"
compound="OC(c1cccc(-n2ccc(C(F)(F)F)n2)c1)c1cnccc1NC1CCCCCC1 (configuration not stated)" value_observed="3.11 µM"
compound=CCOC(=O)CN1C(=O)c2c(c(C)n(-c3ccccc3)c2C)C1=O value_observed="> 100 µM"
compound=O=C1OC[C@@H]2[C@@H](O)CCCCCN12 value_observed="> 100 µM"
compound=N#CN=C(N)c1sc2nc3c(c(-c4ccc(Br)cc4)c2c1N)CCCC3 value_observed="> 100 µM"

###

System: T-47D breast
Experiment: NCI tumour cell line growth inhibition, 48 h
Overview of reported log10 TGI across a group of compounds:
recorded_endpoint: log10 TGI (log10 of the value in µM)

compound=C=CC[n+]1c(/C=C/C=C2\N(C)c3ccccc3C2(C)C)sc2ccc(OC)cc21 value_observed=-0.25
compound=O=C[C@@H](CO)O[C@H](C=O)c1c[nH]c(=O)[nH]c1=O value_observed=2.78
compound=O=C(NC1CCN(Cc2ccccc2)CC1)c1cc(-c2ccncc2)nc2ccc(Cl)cc12 value_observed=1.69
compound=COc1cc2c[n+](C)c3c4cc(OC)c(OC)cc4c(OC)cc3c2cc1OC value_observed=1.09
compound=COc1ccc2oc(=O)cc(C(c3ccc[nH]3)c3ccc[nH]3)c2c1 value_observed=1.42
compound=CC1(C)N=C(N)N=C(N)N1c1cccc(CCCCc2cccc(S(=O)(=O)F)c2)c1 value_observed=1.65
compound="OC(c1cccc(-n2ccc(C(F)(F)F)n2)c1)c1cnccc1NC1CCCCCC1 (configuration not stated)" value_observed=0.63
compound="CC[C@]1(O)CC(OC2CC(N(C)C)C(O)C(C)O2)c2c(cc3c(c2O)C(=O)c2c(O)cccc2C3=O)[C@@H]1C(=O)OC (some centres not stated)" value_observed=0.74
compound=O=[N+]([O-])c1ccc(S(=O)(=O)Cc2ccccc2)c([N+](=O)[O-])c1 value_observed=0.65
compound=CC(C)(C)c1cc(C(=O)Nc2cc(Br)c(Br)cc2S(N)(=O)=O)cc(C(C)(C)C)c1O value_observed=1.19

###

Overview of reported TGI across a group of compounds:
System: SF-539 CNS
Assay: NCI tumour cell line growth inhibition, 48 h
recorded_endpoint: TGI

compound=COc1cc2c(cc1O)CC[C@@H]1[C@@H]2CC[C@]2(C)[C@@H](NCCN(C)C)CC[C@@H]12 target_of_assay="SF-539 CNS" value_observed="0.264 µM"
compound=CCOC(=O)c1c2c(c(O)c3ccccc3c(O)n(Cc3ccc(OC)cc3)c1C)C(=O)C=CC2=O target_of_assay="SF-539 CNS" value_observed="> 100 µM"
compound=Cc1cccc(NC(=O)CCc2ccc(N3C(N)=NC(N)=NC3(C)C)cc2)c1 target_of_assay="SF-539 CNS" value_observed="> 100 µM"
compound=Cc1ccc(S(=O)(=O)N2CCCN(S(=O)(=O)c3ccc(C)cc3)CCN(S(=O)(=O)c3ccc(C)cc3)CCCSCC2)cc1 target_of_assay="SF-539 CNS" value_observed="> 100 µM"
compound="COc1ccc(C2=CC(c3ccccc3)n3nnnc3N2)cc1 (stereo not given)" target_of_assay="SF-539 CNS" value_observed="> 100 µM"
compound="CC1CC(C2=CC=CCS2)=Nc2ccccc2S1 (stereo not given)" target_of_assay="SF-539 CNS" value_observed="> 100 µM"
compound=COc1cc(/C=C/c2ccncc2)cc(OC)c1OC target_of_assay="SF-539 CNS" value_observed="> 100 µM"
compound=CC[C@]12CCCN3CCc4c(n(c5ccccc45)C(=O)C1)[C@@H]32 target_of_assay="SF-539 CNS" value_observed="> 51.9 µM"
compound=NC1=NC(=O)/C(=C/c2ccccc2[N+](=O)[O-])C(N)=N1 target_of_assay="SF-539 CNS" value_observed="> 100 µM"
compound="C=CCOC(=O)N1[C@H]2C#C/C=C\\C#C[C@]3(O)C(=O)C[C@H](C)[C@]24O[C@]43C2=CC(=O)C=CC21OC (stereo not given in full)" target_of_assay="SF-539 CNS" value_observed="45.8 µM"
compound=Cc1cc(N(CCC#N)CCC#N)ccc1/C=C1N=C(/C=C\c2ccccc2)OC\1=O target_of_assay="SF-539 CNS" value_observed="> 100 µM"
compound=O=C(CN1CCN(Cc2ccccc2)CC1)c1ccc2[nH]c(=O)oc2c1 target_of_assay="SF-539 CNS" value_observed="> 100 µM"
compound=F target_of_assay="SF-539 CNS" value_observed="4620 µM"
compound="CCOC(=O)C1(C(N)=O)C(=O)c2ccncc2C1=O (stereo not given)" target_of_assay="SF-539 CNS" value_observed="> 100 µM"
compound=Clc1ncnc(Cl)c1Cl target_of_assay="SF-539 CNS" value_observed="> 100 µM"
compound="O=C(Nc1nnc(-c2ccccc2)o1)C(SC(=S)N1CCCCC1)c1ccccc1 (stereo not given)" target_of_assay="SF-539 CNS" value_observed="71.3 µM"
compound=O=C1OC[C@@H]2[C@@H](O)CCCCCN12 target_of_assay="SF-539 CNS" value_observed="> 100 µM"
compound=FC(F)(F)c1nc(N2CCCC2)ncc1-c1nnnn1-c1ccc(Cl)cc1 target_of_assay="SF-539 CNS" value_observed="> 100 µM"
compound=Nc1ccc(S(=O)(=O)Nc2nnc(S(N)(=O)=O)s2)cc1 target_of_assay="SF-539 CNS" value_observed="> 100 µM"
compound="COc1cc(C2SCC(=O)N2c2cc(Cl)c(Cl)cc2Cl)cc(OC)c1OC (stereo not given)" target_of_assay="SF-539 CNS" value_observed="> 100 µM"
compound=Cc1ccc(C2=Nc3cc(C)c(Cl)cc3S(=O)(=O)NN2)cc1 target_of_assay="SF-539 CNS" value_observed="> 100 µM"
compound="COc1cc(C2SC(N)=Nc3c2c(C)nn3C(=O)c2ccccc2O)cc(OC)c1OC (stereo not given)" target_of_assay="SF-539 CNS" value_observed="> 10 µM"
compound=COc1cc(-c2cn(S(=O)(=O)c3ccc(C)cc3)c3ccccc23)nc(-c2cn(S(=O)(=O)c3ccc(C)cc3)c3ccccc23)n1 target_of_assay="SF-539 CNS" value_observed="0.592 µM"
compound=Cc1cn(Cc2ccccc2CCO)c(=S)[nH]c1=O target_of_assay="SF-539 CNS" value_observed="> 100 µM"
compound=Brc1ccc2[nH]cc(-c3csc(-c4ccccn4)n3)c2c1 target_of_assay="SF-539 CNS" value_observed="> 100 µM"
compound="CC(C)/C=C1\\CCC(CN2CCCC2)C1=O (stereo not given)" target_of_assay="SF-539 CNS" value_observed="35.6 µM"
compound="OC1[C@H]([C@H]2CCCC[C@@H]2O)CCC[C@@H]1[C@@H]1CCCC[C@H]1O (stereo not given in full)" target_of_assay="SF-539 CNS" value_observed="> 100 µM"
compound=CC1=NCCN=C(C)C1N=Nc1ccc2nc(C)[nH]c2c1 target_of_assay="SF-539 CNS" value_observed="42.5 µM"
compound="CC1CC[C@]2(C(=O)O)CCC3(COC(=O)/C=C\\c4ccc(O)cc4)C(=CCC4[C@@]5(C)CC[C@H](O)C(C)(C)C5CC[C@]43C)[C@@H]2[C@H]1C (stereo not given in full)" target_of_assay="SF-539 CNS" value_observed="31.3 µM"
compound="COC(=O)[C@@]12C(=O)C=CC(=O)[C@@H]1C1C(=CC2COC(C)=O)O[C@@H]2OC3(CCCCC3)O[C@H]12 (stereo not given in full)" target_of_assay="SF-539 CNS" value_observed="24.7 µM"
compound="CC1(C)CCC[C@@]2(C)C1CCC1(C)C(CCc3ccoc3)/C(=C/OS(=O)(=O)O)CCC12 (stereo not given in full) (tested in a mixture with another compound)" target_of_assay="SF-539 CNS" value_observed="> 100 µM"
compound="NC(Cc1ccc(S(=O)(=O)O)cc1)C(=O)NC(CCCCNC(=O)NCCCCC(NC(=O)C(N)Cc1ccc(S(=O)(=O)O)cc1)C(=O)NC(Cc1ccc(S(=O)(=O)O)cc1)C(=O)O)C(=O)NC(Cc1ccc(S(=O)(=O)O)cc1)C(=O)O (stereo not given)" target_of_assay="SF-539 CNS" value_observed="> 100 µM"
compound="CCOc1ccccc1NC(=O)CC1C(=O)Nc2ccccc2S1=O (stereo not given)" target_of_assay="SF-539 CNS" value_observed="> 100 µM"
compound="N#Cc1c(-c2ccccc2)nc(SCC2CO2)nc1N1CCOCC1 (stereo not given)" target_of_assay="SF-539 CNS" value_observed="> 95.4 µM"
compound="CCS(=O)(=O)N1CCC(C(C)n2c(C)c(C(=O)NCc3c(OC)cc(C)[nH]c3=O)c3ccccc32)CC1 (stereo not given)" target_of_assay="SF-539 CNS" value_observed="> 100 µM"
